Numbers sourced from paper PMC8612984.

Target: T1, C1r-CCP2-SP, recombinant autoactivated domain truncation of human C1r (human, UniProt P00736 375-703)
T1 sequence: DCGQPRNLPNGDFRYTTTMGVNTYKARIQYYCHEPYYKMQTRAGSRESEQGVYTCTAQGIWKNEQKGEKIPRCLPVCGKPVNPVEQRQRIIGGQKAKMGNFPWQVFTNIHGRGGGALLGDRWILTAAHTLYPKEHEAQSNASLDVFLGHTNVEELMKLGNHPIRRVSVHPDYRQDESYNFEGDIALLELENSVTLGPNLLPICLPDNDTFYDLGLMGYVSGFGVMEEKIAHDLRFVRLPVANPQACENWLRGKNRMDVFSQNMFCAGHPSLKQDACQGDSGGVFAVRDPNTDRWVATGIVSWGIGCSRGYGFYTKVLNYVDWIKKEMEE
Assay: SPR
Rule: kon under 200000 M⁻¹ s⁻¹ gives n, otherwise y.

Hello, I need to know if BBK32-C T242A (domain or fragment, B. burgdorferi B31, UniProt O50835 206-348, looked up) SNRYQSYLEGVKYNVDSAIQTITKIYNTYTLFSTKLAQMYSTRLDNFAKAKAKEEAAKFTKEDLEKNFKTLLNYIQVSVKTAANFVYINDTHAKRKLENIEAEIKTLIAKIKEQSNLYEAYKAIVTSILLMRDSLKEVQGIID has measured kon not below 200000 M⁻¹ s⁻¹. Thanks!
n
